Known Growth Rate of a selection of compounds
- Tested on: U2OS
- Test Summary: Incucyte cell viability with U2OS; also: unitless GR value; below 1 slowed growth and below 0 cell loss
- Assay type: toxicity, cell-based
- Conditions Used: human, 0 h, 10 µM, compound concentration 10 uM, replicate number 1
Value Type: Growth Rate

Compound	Target Desc	Recorded Number
CCn1c(-c2nonc2N)nc2cncc(C(=O)N3CC[C@H](N)C3)c21.Cl	U2OS	-1
Cl.Cl.N=C(N)NCCC[C@H](NC(=O)CC1(CC(=O)N2CCN(C3c4ccccc4NC(=O)c4ccccc43)CC2)CCCC1)C(=O)NCCn1c(=O)n(-c2ccccc2)n(-c2ccccc2)c1=O (stereo partly drawn)	U2OS	0.38
O=C1NC(NC23CC4CC(CC(C4)C2)C3)=N/C1=C\c1ccc2ncsc2c1	U2OS	0.86
CNC1(C)C2CCC(C2)C1(C)C.Cl (stereo not drawn) [MECAMYLAMINE HYDROCHLORIDE]	U2OS	0.92
CC(C)c1cc(Br)c(NC(=O)Nc2cccnc2)c(Br)c1	U2OS	-0.34
C=CC(=O)Nc1ccc(C(=O)Nc2n[nH]c3c2CN(C(=O)N[C@H](CN(C)C)c2ccccc2)C3(C)C)cc1	U2OS	-1
C[C@@H]1COCCN1c1cc(=O)n2c(n1)N(Cc1cncc(Cl)c1)[C@H](C(F)(F)F)CC2	U2OS	0.01
Cl.Cl.N#Cc1ccc(O[C@@H]2c3ccccc3C[C@H]2N2CCC[C@@H](N)C2)c(Cl)c1	U2OS	-1

====

- Test system: Fibroblast
- Test Summary: Incucyte cell viability with human fibroblast; also: unitless GR value; below 1 slowed growth and below 0 cell loss
- Format: toxicity, cell-based
- Conditions Used: 18 h, 10 µM, compound concentration 10 uM, replicate number 2
Okay, here is how we bin by Growth Rate: group A: < 0.4; group B: ≥ 0.4 and < 0.8; group C: ≥ 0.8

Molecule	Target Desc	Category Label
Cc1c(NC(=O)c2ccc(C(C)(C)C)cc2)cccc1-c1cn(C)c(=O)c(Nc2ccc(C(=O)N3CCOCC3)cc2)n1	Fibroblast	group B
CN(C)C(=O)Cn1cc(-c2nc(C3(c4ccc(-c5cnc(N)nc5)cc4)CC3)no2)cn1 [BI 0153]	Fibroblast	group B
CCCn1cc(-c2cc(C3C(=O)N(CC)c4ccc(C(F)(F)F)cc4N(c4ccccc4)C3=O)cc(OC)c2O)cn1 (configuration not stated)	Fibroblast	group B
CC1CCN(C(=O)[C@@H](CCn2cccc2C#N)NS(=O)(=O)c2cccc3[nH]ccc23)CC1	Fibroblast	group C
C[C@@]1(Cc2ccc(C#N)cc2)C(=O)N(c2cc(Cl)cc(Cl)c2)c2ncc(C(=O)NC3(c4nc(C5CCC5)no4)CC3)n21 [BI 9446]	Fibroblast	group B
Cn1cc(-n2cnc3c(NCc4nc5cc(Cl)c(Cl)cc5[nH]4)nc(N4CCOCC4)nc32)cn1	Fibroblast	group A
COc1cc(Cl)c(C(=O)N[C@@H](CN[C@H]2CC[C@@H](N)CC2)Cc2ccc(C#N)cc2)cc1-c1ccc(CN[C@H](C)c2ccc(C)cc2)o1	Fibroblast	group A
COc1ccc(-c2cc3c(C)nc(N)nc3n([C@H]3CC[C@H](OCCO)CC3)c2=O)cn1 [PF-04691502]	Fibroblast	group A
CNc1ncc2cc(-c3ccc(-c4cccc(C)n4)cc3Cl)c(=O)n(C[C@H]3OC[C@H](N)CO3)c2n1	Fibroblast	group A
CC(C)n1nc(-c2cnc(N)c(OC(F)(F)F)c2)cc1[C@H]1[C@@H]2CN(C3COC3)C[C@@H]21	Fibroblast	group C
CC1(C)CCC[C@]2(C)[C@@H](C=O)C(C=O)=CC[C@@H]12 [POLYGODIAL]	Fibroblast	group C
C[C@]12CC[C@@H]3c4ccc(O)cc4CC[C@H]3[C@@H]1C[C@H]1OC(=O)C[C@]12O	Fibroblast	group A
O=C(NCc1ccc(F)cc1)C1CCN(S(=O)(=O)c2cc(Cl)cc(Cl)c2)CC1	Fibroblast	group B
CC(C)[C@@H]1CC[C@@H](C)C[C@@H]1P(=O)(c1ccccc1)c1ccccc1	Fibroblast	group C
COc1ccccc1[C@@H]1CNCCC12CCN(C(=O)[C@](OC)(c1ccccc1)C(F)(F)F)CC2	Fibroblast	group C
CS(=O)(=O)CCNCc1ccc(-c2ccc3ncnc(Nc4ccc(OCc5cccc(F)c5)c(Cl)c4)c3c2)o1 [LAPATINIB]	Fibroblast	group B
COc1ccccc1-c1cc(Nc2cccc(CS(N)(=O)=O)c2)ncn1	Fibroblast	group C
CN(C)C/C=C/C(=O)Nc1cccc(C(=O)Nc2ccc(Nc3nccc(-c4cccnc4)n3)cc2)c1	Fibroblast	group A
CN(C)c1cc2c(Nc3ccc4c(cnn4Cc4ccccc4)c3)ncnc2cn1 [GW282974X]	Fibroblast	group C
Cl.Cl.Fc1ccc([C@@H]2CCNC[C@H]2COc2ccc3c(c2)OCO3)cc1.Fc1ccc([C@@H]2CCNC[C@H]2COc2ccc3c(c2)OCO3)cc1.O [PAROXETINE HYDROCHLORIDE]	Fibroblast	group B
N=C(N)NCCC[C@H](NC(=O)CC1(CC(=O)N2CCN(C(c3ccccc3)c3ccccc3)CC2)CCCC1)C(=O)NCc1ccccc1.O=C(O)C(F)(F)F.O=C(O)C(F)(F)F	Fibroblast	group C
COc1cc(C(=O)NC2CCN(C)CC2)ccc1Nc1ncc(C(F)(F)F)c(NCc2ccc(C)cc2N(C)S(C)(=O)=O)n1.O=CO.O=CO	Fibroblast	group A
Cl.N/C(=N\C(=O)c1nc(Cl)c(N)nc1N)NCc1ccccc1 [BENZAMIL HYDROCHLORIDE]	Fibroblast	group B
O=C(Nc1cc(C(F)(F)F)cc(C(F)(F)F)c1)c1cc(Cl)ccc1O [IMD-0354]	Fibroblast	group A
CC(C)n1cnc2c(Nc3cccc(Cl)c3)nc(N[C@H]3CCCC[C@@H]3N)nc21	Fibroblast	group A
Cl.c1ccc2c(c1)CCC[C@H]2Nc1nc2ccccc2[nH]1	Fibroblast	group C
CC(C)[C@H](C(=O)Nc1ccc(C(=O)NO)cc1)c1ccccc1 [AR-42]	Fibroblast	group B
CC(C)(C)c1cc(C(C)(C)C)c(NC(=O)c2c[nH]c3ccccc3c2=O)cc1O [IVACAFTOR]	Fibroblast	group B
Cc1ccc(C(=O)Nc2cc(N3CCN(C)CC3)cc(C(F)(F)F)c2)cc1-n1cc(-c2cnn(C)c2C)nn1.Cl	Fibroblast	group A
